- study_target: UniProt:Q8N6T3
- Sequence (Q8N6T3 whole entry, looked up): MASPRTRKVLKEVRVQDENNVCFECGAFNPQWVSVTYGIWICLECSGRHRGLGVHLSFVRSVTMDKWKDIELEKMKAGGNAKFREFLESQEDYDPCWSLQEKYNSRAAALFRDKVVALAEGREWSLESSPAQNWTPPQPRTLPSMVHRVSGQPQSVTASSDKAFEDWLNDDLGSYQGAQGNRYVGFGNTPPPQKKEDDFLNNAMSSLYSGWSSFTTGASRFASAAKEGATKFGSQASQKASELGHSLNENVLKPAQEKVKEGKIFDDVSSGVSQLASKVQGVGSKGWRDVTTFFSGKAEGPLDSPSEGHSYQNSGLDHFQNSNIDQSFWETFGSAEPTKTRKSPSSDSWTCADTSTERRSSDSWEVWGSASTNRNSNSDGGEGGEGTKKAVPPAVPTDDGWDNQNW
endpoint_label: pKd
pKd (log units): -log10 of the concentration in mol/L.

In: // pKd lookup, key: OC[C@H](Cc1ccccc1)Nc1nc(Oc2ccc3c(c2)CCC3)nc2c1ncn2Cc1ccc(-c2ccccc2)cc1
Out: 6.21

* * *

# reported EC50; entries follow
- Tested on: HEK293
- protocol_summary: Effect on Wnt/[…] reporter pathway in HEK293 cells expressing super(8X)TOPFlash reporter assessed as luciferase activity in presence of Wnt-3a
- Format: functional, cell-based
- experimental_parameters: Homo sapiens
Number only, in µM; omit the unit.

In: // EC50 lookup, key: OC[C@H](Cc1ccccc1)Nc1nc(Oc2cccc(-c3ccccc3)c2)nc2c1ncn2Cc1ccc(-c2ccccc2)cc1
Out: 3.1

In: Entry to check: OC[C@H](Cc1ccccc1)Nc1nc(Oc2ccc3c(c2)CCC3)nc2c1ncn2Cc1ccc(-c2ccccc2)cc1
Out: 0.5

In: Entry to check: O=[N+]([O-])c1ccc(-c2ccc(Cn3cnc4c(N[C@H](CO)Cc5ccccc5)nc(Oc5ccc6c(c5)CCC6)nc43)cc2)cc1
Out: 1.5

In: Entry to check: CC1(C)Cc2cc(Oc3nc(NCc4ccccc4)c4ncn(Cc5ccc(-c6ccccc6)cc5)c4n3)ccc2O1
Out: 1.7

In: Entry to check: O=[N+]([O-])c1ccc(C[C@@H](CO)Nc2nc(Oc3ccc4c(c3)CCC4)nc3c2ncn3Cc2ccc(-c3ccccc3)cc2)cc1
Out: 0.4

Others:
In: // EC50 lookup, key: [N-]=[N+]=Nc1ccc(C[C@@H](CO)Nc2nc(Oc3ccc4c(c3)CCC4)nc3c2ncn3Cc2ccc(-c3ccccc3)cc2)cc1
Out: 0.6

In: Entry to check: OC[C@H](Cc1ccccc1)Nc1nc(Oc2cccc3ccccc23)nc2c1ncn2Cc1ccc(-c2ccccc2)cc1
Out: 4.6
